# TEST DETAILS: Pharmacokinetics after oral administration of CK polymorphs in rats (20 mg/kg)
# Format: in vivo, Sprague-Dawley rats
# RECORDED CONDITIONS: female, Sprague-Dawley, rat, plasma, po, 20 mg/kg, female rats, p.o. 20 mg/kg, mean ± SD (n = 3); read-out: Tmax
READOUT LABEL: Tmax
The reply must contain the numeric value and, after it, the unit.

**Query** Would you mind telling me what Tmax value was observed for CC(C)=CCCC(C)(OC1OC(CO)C(O)C(O)C1O)C1CCC2(C)C1C(O)CC1C3(C)CCC(O)C(C)(C)C3CCC12C (stereo not shown) [Form IV] ?
**Result** 2.33 h
